Ref: a melting point compilation (Tetko et al.; mined from patent text by program, amines drawn as free bases though some values may be those of a salt)

value-type: melting point

Example entries and their recorded answers appear below.
# melting point of `Fc1ccc(C23COC(c4ccc(Cl)cc4)(OC2)OC3)cc1` = 251 to 252 °C

# melting point of `CCOC(=O)c1ccc(NC(=O)C=C(c2ccccc2)c2ccc(Cl)cc2)cc1` = 173 to 175 °C

# melting point of `C[C@H](C#Cc1ccc(CCc2ccc(F)cc2)s1)N(O)C(N)=O` = 126 to 128 °C

# melting point of CCCCCCCCCCCNC(=O)N(C)CC(O)C(O)C(O)C(O)CO (centres undefined) = 109 °C

# melting point of `CCOC(=O)C(=CNc1cscc1OC)C(=O)OCC` = 100 to 102 °C

# melting point of Cc1sc(C)c2c1CCCC2(O)c1cn(C(c2ccccc2)(c2ccccc2)c2ccccc2)cn1 (centres undefined) = 111 to 115 °C

# melting point of CC(C#N)(c1ccc(Cl)c(C(F)(F)F)c1)c1ccc([N+](=O)[O-])cc1Cl (centres undefined) = 162 °C

# melting point of `Clc1ccc(-c2n[nH]c(-c3ccncc3)n2)cc1` = 264 to 266 °C

The record that follows has no melting point shown yet.
# melting point of CC1(C)CCCN(C(=O)[C@H]2C[C@H](S(=O)(=O)c3ccccc3)[C@@H](c3ccccc3F)N2)C1 (racemic) = 210 °C

###

Catalogue of molecules with associated melting point

# melting point of `Cn1ncc(C(=O)N2CC(F)C2)c1C(=O)Nc1ccc2nc(-c3ccccc3)nn2c1` = 243 °C

# melting point of COC(=O)C(O)C(NCc1ccccc1)c1ccc([N+](=O)[O-])cc1 (centres undefined) = 147 to 149 °C

# melting point of `Fc1ccccc1Cn1cnc2c(Nn3ccc4ccccc43)ncnc21` = 236 to 238 °C

# melting point of `Cc1cc(C)cc(-c2cnn3c(-c4cccc(-c5nnn(CCN6CCCC6)n5)c4)ccnc23)c1` = 60 °C

# melting point of `CCCCCCNC(=O)c1cnc(Cl)nc1` = 101 to 102 °C

# melting point of `COc1cc(O)c(C=O)cc1Br` = 63 to 64 °C

# melting point of CC(C)(CCCCCCCCCCC(C)(C)C(O)C(=O)O)C(O)C(=O)O (centres undefined) = 87 to 100 °C

# melting point of `CS(=O)(=O)c1ccc(-n2cncc2-c2ccccc2)cc1` = 164 °C

# melting point of `CCCCCCC1c2cc(CBr)ccc2-c2ccc(CBr)cc21` = 143 to 145 °C

# melting point of Cc1ccc(C(=O)C2=C(O)C(=O)N(c3ncc(S(=O)(=O)c4ccc([N+](=O)[O-])cc4)s3)C2c2ccc(C(=O)N(C)C)cc2)cc1 (centres undefined) = 205 °C

More entries:
# melting point of `CC(C)(C)SC[C@@H]1NC(=O)[C@@H](CSSC[C@@H]2NC(=O)[C@@H](CSC(C)(C)C)NC2=O)NC1=O` = 278 °C

# melting point of `CN1CCN(C(=O)Nc2ccc3c(c2)NC(=O)/C3=C\c2ccc[nH]2)C1=O` = 267 to 272 °C

# melting point of Cc1oc(-c2ccccc2)nc1Cc1cc2cc(CCCC3OC(=O)NC3=O)ccc2o1 (centres undefined) = 184 to 185 °C

###

Catalogue of compounds with associated melting point

# melting point of `CCOc1c(C=O)cc2c3c(cccc13)-c1ccccc1-2` = 118 to 119 °C

# melting point of `N#Cc1c(N2CCN(C(=O)c3ccco3)CC2)c2cc(Cl)cnc2n(CC(=O)c2ccccc2)c1=O` = 328 °C

# melting point of `Cc1ccc2ccc(=O)oc2c1C` = 122 to 123 °C

# melting point of `OCc1c[nH]c2c1ccc1c3ccccc3[nH]c12` = > 295 °C

# melting point of `CCc1nc(Cc2ccc(NC(=O)/C=C/c3cnn(C)c3-c3ccc(F)cc3)cc2)cs1` = 178 to 179 °C

# melting point of `CCOCCS(=O)(=O)c1c(Cl)nc(Cl)nc1Cl` = 133 to 134 °C

More entries:
# melting point of `CCCCCn1cc(C(=O)O)c(=O)cc1C` = 126 °C

# melting point of ON=C1CCC2(CC1)OC(c1ccccc1)c1ccccc12 (stereo not given) = 172 to 175 °C

###

value-type: melting point

# melting point of COc1ccc(COc2cccc(C(C)O)c2OCc2ccc(OC)cc2)cc1 (stereo not given) = 88 to 89 °C

# melting point of CN(C)C(=O)c1ccc(CNC(=O)C2Cc3ccccc3N2S(=O)(=O)c2ccc(-c3cccc(C(F)(F)F)c3)cc2)cc1 (stereo not given) = 70 °C

# melting point of Clc1ccc(C2CN3CCN=C3c3ccccc32)cc1 (single isomer, unassigned; (-)) = 184 °C

# melting point of `CCCc1c(OCCCOc2ccc(CC(=O)O)cc2Br)ccc(C(C)=O)c1O` = 111 to 112 °C

The record that follows has no melting point shown yet.
# melting point of `Cc1ccc(F)cc1C(=O)Nc1ccc(C(=O)N2Cc3ccnn3Cc3ccccc32)c(Cl)c1` = 137 to 140 °C

###

Catalogue of compounds with associated melting point

# melting point of CCC(O)(Cn1cncn1)C(C)(C)Cc1ccc(Cl)cc1 (stereo unspecified) = 124 to 125 °C

# melting point of `Fc1ccc(Cn2c(OC3CCN(Cc4ccccc4)CC3)nc3cncnc32)cc1` = 117 °C

# melting point of `O=C(Nc1ccccc1F)Nc1cc(Cl)ccc1C(=O)O` = 195 to 197 °C

# melting point of CCCCCC(=O)NC(=O)N1CC1C#N (stereo unspecified) = 143 to 144 °C

# melting point of `O=C(O)CCc1nnc2c(=O)[nH]c3cc(C(F)(F)F)ccc3n12` = 333 °C

The record that follows has no melting point shown yet.
# melting point of `COc1ccc(C=CC(=O)CC(=O)C=Cc2ccc(OC)cc2)cc1` = 154 to 155 °C

###

Catalogue of molecules with associated melting point
Give your result in °C as a bare value.

# melting point of CCN(CC)C(=O)C(C)Cc1cc(-c2ccccc2)cc2ccccc12 (stereo not given) = 70

The record that follows has no melting point shown yet.
# melting point of `OCCON=Cc1ccc2ccccc2c1` = 87

###

Catalogue of molecules with associated melting point

Example entries and their recorded answers appear below.
# melting point of `CC(=O)c1ccc(NS(C)(=O)=O)c(Sc2ccc(F)cc2F)c1` = 114 to 117 °C

# melting point of `CC(=O)NC[C@H]1CN(c2ccc(C3(F)CCNCC3)c(F)c2)C(=O)O1` = 163 to 165 °C

# melting point of `CCCCCc1ccc(OC(=O)N2CCC(OC(=O)NCCCCCCOC(=O)N3CCC4(CCCC4)CC3)CC2)cc1` = 100 to 102 °C

# melting point of O=C(O)CCNc1ccccc1CNC(=O)C1Cc2ccccc2N1S(=O)(=O)c1ccc(-c2cccc(C(F)(F)F)c2)cc1 (centres undefined) = 94 °C

# melting point of `Nc1nc2c(ncn2COCCOC(=O)CCC(=O)O)c(=O)[nH]1` = 203 to 207 °C

More entries:
# melting point of `CC1=CC(=C(C#N)C#N)C=C(C)S1(=O)=O` = 176 to 177 °C

# melting point of `CCOC(=O)Nc1ccc(OC23CC4CC(CC(C4)C2)C3)cc1` = 116 to 118 °C

# melting point of `Cc1cccc(CC(=O)O)c1OCCCc1cn(-c2ccc(C(F)(F)F)cn2)nc1C(C)C` = 159 to 160 °C

# melting point of CCOC(=O)C(C)Oc1ccc(OCc2ccccc2)cc1 (centres undefined) = 36 to 44 °C

###

value-type: melting point

Example entries and their recorded answers appear below.
# melting point of `CC1=CC(C)(C)Nc2ccc(O)cc21` = 182 to 184 °C

# melting point of `COc1ccc(OC)c(C(=O)c2cc3cc(OC)ccc3o2)c1` = 119 to 121 °C

# melting point of `CC(=O)Nc1nc(CCc2ccc(N)cc2)c(C(=O)NCc2ccc(S(C)(=O)=O)cc2)s1` = 78 to 80 °C

# melting point of CN(Cc1ccccc1)CC1CN(c2c(F)cc3c(=O)c(C(=O)O)cn(C4CC4)c3c2F)CCO1 (stereo not given) = 155 to 157 °C

More entries:
# melting point of CC(c1ccccc1)c1n[nH]c2c1c(=O)n(-c1ccccc1)c1ncccc21 (stereo not given) = 267 to 268 °C

# melting point of `Cc1cc(-c2c(-c3ccc(S(C)(=O)=O)cc3)cnn(CC(F)(F)F)c2=O)ccc1F` = 88 to 91 °C

###

Catalogue of molecules with associated melting point

# melting point of `Cc1cc(F)ccc1-c1nc(NC2CCOCC2)nc2c1ccc(=O)n2-c1c(F)cccc1F` = 231 to 232 °C

# melting point of O=C(O)CC(Sc1cccs1)C(=O)O (stereo unspecified) = 136 to 138 °C

# melting point of `Cc1c(Cl)cccc1S(=O)O` = 112 °C

# melting point of `O=C1OC(=O)c2c3ccccc3c(Cl)c3cccc1c23` = 269 to 271 °C
